All figures here come from patent US8337941B2.

For each of the molecules below, state its IC50.
Biological target: VMAT2 (Homo sapiens)
Sequence (Q05940 whole entry, species assumed): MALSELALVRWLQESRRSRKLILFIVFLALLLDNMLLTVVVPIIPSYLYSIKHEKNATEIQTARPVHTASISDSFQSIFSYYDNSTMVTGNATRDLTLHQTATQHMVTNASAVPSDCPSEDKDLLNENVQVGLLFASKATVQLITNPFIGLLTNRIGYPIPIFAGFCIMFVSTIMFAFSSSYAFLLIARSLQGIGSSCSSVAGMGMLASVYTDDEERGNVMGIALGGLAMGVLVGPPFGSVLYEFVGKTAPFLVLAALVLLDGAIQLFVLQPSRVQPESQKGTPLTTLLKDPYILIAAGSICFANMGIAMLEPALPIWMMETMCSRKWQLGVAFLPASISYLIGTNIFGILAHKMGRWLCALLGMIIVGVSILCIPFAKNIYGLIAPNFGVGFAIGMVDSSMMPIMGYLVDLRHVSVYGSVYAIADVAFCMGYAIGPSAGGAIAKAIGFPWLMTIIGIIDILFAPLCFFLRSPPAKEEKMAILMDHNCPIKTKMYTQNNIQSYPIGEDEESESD

Record lookup: for VMAT2 (Homo sapiens), what IC50 belongs to NCCc1ccc(O)c(O)c1 [DA, dopamine, reference compound] ? ~1 µM

Record lookup: for VMAT2 (Homo sapiens), what IC50 belongs to NCCc1cc(=O)oc2c3c4c(cc12)CCCN4CCC3 ? 2.5 µM
